# procedure-details: BIC plasma pharmacokinetics, Phase 1 open-label single-dose DDI study GS-US-380-3909 (B/F/TAF 50/200/25 mg with antacid or mineral supplements)
# Type: in vivo, human
# stated-conditions: both sexes, human, plasma, oral, Cohort 1 fasted; B/F/TAF with aluminum/magnesium-containing antacid simultaneous; N = 14; read-out: C24, test GLSM
# Experimental: Eligible participants were adult (18–45 years) males and non-pregnant, non-lactating females in good general health at a screening evaluation performed no more than 28 days before the first study dose. […] Full eligibility criteria are available in the supplement. […] Three dosing cohorts were evaluated (Table 1). […] All samples were analyzed within the timeframe determined using frozen stability storage data. […]
measure-name: concentration at 24 h (ng/mL)
The reply should be a number in ng/mL, with the unit left off.

concentration at 24 h in this record for O=C(NCc1c(F)cc(F)cc1F)c1cn2c(c(O)c1=O)C(=O)N1[C@H]3CC[C@H](C3)O[C@@H]1C2 : 380
